target: human S1P1 receptor (Homo sapiens, UniProt P21453); construct: membrane preparation; assay: GTP γ35S binding assay for S1P1 activity; settings: membranes of cells stably expressing the S1P1 receptor, test compounds 0.08 to 5,000 nM
Sequence (P21453 whole entry): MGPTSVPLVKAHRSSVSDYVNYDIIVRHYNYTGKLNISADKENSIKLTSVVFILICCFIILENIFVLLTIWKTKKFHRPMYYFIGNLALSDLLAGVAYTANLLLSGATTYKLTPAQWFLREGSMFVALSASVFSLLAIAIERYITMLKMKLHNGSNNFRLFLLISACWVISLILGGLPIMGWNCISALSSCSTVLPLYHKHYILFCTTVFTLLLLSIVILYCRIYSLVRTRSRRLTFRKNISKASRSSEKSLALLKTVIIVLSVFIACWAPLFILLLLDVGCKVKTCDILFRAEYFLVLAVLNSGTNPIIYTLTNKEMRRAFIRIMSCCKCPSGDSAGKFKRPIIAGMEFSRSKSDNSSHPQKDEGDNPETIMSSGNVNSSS
Entries and their log10(EC50) values follow.
The figures below represent log10 of EC50, where EC50 is stated in nM.

# return log10(EC50) of Cc1ccc(CC(CCCCc2ccc(CNCCC(=O)O)cc2)c2cc(F)cc(F)c2)cc1C (stereo not drawn) (system: human S1P1 receptor (Homo sapiens, UniProt P21453))
0.83

Report its log10(EC50) with human S1P1 receptor (Homo sapiens, UniProt P21453) as the test system: Cc1ccc(CC(CCCc2ccc(CNCCC(=O)O)cc2)c2cccc(Cl)c2)cc1C (stereo not drawn)
2.15

Please respond with reported log10(EC50) (system human S1P1 receptor (Homo sapiens, UniProt P21453)) for Cc1ccc(CC(CCCc2ccc(CNCCCP(=O)(O)O)cc2)c2cccc(Cl)c2)cc1C (stereo not drawn) .
0.49

Find log10(EC50) for Cc1ccc(CC(CCCCc2ccc(CNCCC(=O)O)cc2)c2cccc(Cl)c2)cc1C (stereo not drawn) on human S1P1 receptor (Homo sapiens, UniProt P21453) and write it down.
1.30

Please look at Cc1ccc(CC(CCCCc2ccc(CNCCCP(=O)(O)O)cc2)c2cc(F)cc(F)c2)cc1C (stereo not drawn) and tell me its recorded log10(EC50) on human S1P1 receptor (Homo sapiens, UniProt P21453).
0.71

Quote log10(EC50) with test system human S1P1 receptor (Homo sapiens, UniProt P21453) for Cc1ccc(CC(CCCCc2ccc(CNCCCP(=O)(O)O)cc2)c2cccc(Cl)c2)cc1C (stereo not drawn)
0.57
